Reported IC50 by item:
tgt: Acyl-protein thioesterase 1 (Rattus norvegicus, UniProt P70470)
Sequence (P70470 whole entry): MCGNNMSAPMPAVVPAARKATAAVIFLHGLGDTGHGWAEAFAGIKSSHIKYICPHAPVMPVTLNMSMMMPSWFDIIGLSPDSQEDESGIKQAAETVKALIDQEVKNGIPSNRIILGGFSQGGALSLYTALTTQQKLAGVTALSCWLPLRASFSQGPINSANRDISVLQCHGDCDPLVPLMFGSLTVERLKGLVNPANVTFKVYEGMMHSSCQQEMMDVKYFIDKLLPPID
assay: in vitro inhibitory activity against Lysosomal phospholipase A1 consisting of negatively charged liposomes and lysosomal extracts.

molecule: NCC1OC(OC2C(N)CC(N)(CO)C(OC3OC(CCl)C(O)C(N)C3O)C2O)C(N)C(O)C1O (configuration not stated)
IC50 (µM): 105
//
molecule: CC(=O)NCC1OC(OC2C(O)C(OC3OC(CN)C(O)C(O)C3N)C(N)CC2(N)CO)C(O)C(N)C1O (configuration not stated)
IC50 (µM): 119

---

Recorded pIC50 values for a group of molecules are listed next.
tgt: UniProt:P70470
assay: ChEBML_100186
pIC50: −log10 of the molar value.
assay_metric: pIC50

molecule: [N-]=[N+]=NCC1OC(OC2C(O)C(OC3OC(CN)C(O)C(O)C3N)C(N)CC2(N)CO)C(O)C(N)C1O (configuration not stated)
assay_metric: pIC50
result: 4.02

molecule: NCC1OC(OC2C(N)CC(N)(CO)C(OC3OC(CO)C(O)C(N)C3O)C2O)C(N)C(O)C1O (configuration not stated)
assay_metric: pIC50
result: 4.10
